System: primary AML patient cells (S017)
Assay: viability relative to DMSO control (fraction); higher = less drug effect (more viable cells)
Settings: 0.024 µM; 48 h
Quantity measured: viability

1) Nc1nc(=S)c2[nH]cnc2[nH]1 [Thioguanin]
0.97
2) N#Cc1ccnc(N2C(=O)CC[C@H]2C(=O)N(c2cncc(F)c2)[C@H](C(=O)NC2CC(F)(F)C2)c2ccccc2Cl)c1 [AG-120]
1.04
3) O=C(Nc1cccc(C(F)(F)F)c1)Nc1cc(S(=O)(=O)NC2CC2)ccc1-c1ccsc1 [AGI-6780]
0.881
4) N#CC[C@H](C1CCCC1)n1cc(-c2ncnc3[nH]ccc23)cn1 [Ruxolitinib]
1.05
5) C[C@@H](Oc1cc(-c2cnn(C3CCNCC3)c2)cnc1N)c1c(Cl)ccc(F)c1Cl [Crizotinib]
1.03
6) Oc1ccc(/C=C/c2cc(O)cc(O)c2)cc1 [Resveratrol]
0.89
7) Cc1cc(Nc2ncc(Cl)c(Nc3ccccc3S(=O)(=O)C(C)C)n2)c(OC(C)C)cc1C1CCNCC1 [Ceritinib]
0.958

====

System: primary FL patient cells (S087)
Test: viability relative to DMSO control (fraction); higher = less drug effect (more viable cells)
Details: 0.016 µM; 48 h
Quantity measured: viability

1) Cc1sc2c(c1C)C(c1ccc(Cl)cc1)=N[C@@H](CC(=O)Nc1ccc(O)cc1)c1nnc(C)n1-2
1.02
2) CC(C)c1cc(C(=O)N2Cc3ccc(CN4CCN(C)CC4)cc3C2)c(O)cc1O
1.02
3) Nc1nc(F)nc2c1ncn2[C@@H]1O[C@H](CO)[C@@H](O)[C@@H]1O
1
4) CC[C@H](Nc1ncnc2[nH]cnc12)c1nc2cccc(F)c2c(=O)n1-c1ccccc1
0.923

====

System: primary CLL patient cells (S043)
Assay: viability relative to DMSO control (fraction); higher = less drug effect (more viable cells)
Conditions: 2 µM; 48 h
Quantity measured: viability

1. O=C(Nc1nc2ccccc2n1CCN1CCOCC1)c1cccc([N+](=O)[O-])c1 [IRAK-1/4 INHIBITOR I]
0.845
2. CC(C)c1cc(C(=O)N2Cc3ccc(CN4CCN(C)CC4)cc3C2)c(O)cc1O [Onalespib]
0.395
3. CN1CC[C@H](c2c(O)cc(O)c3c(=O)cc(-c4ccccc4Cl)oc23)[C@H](O)C1 [Flavopiridol]
0.0335
4. Nc1nc(F)nc2c1ncn2[C@@H]1O[C@H](CO)[C@@H](O)[C@@H]1O [Fludarabine]
0.614
5. CC(C)c1cc(-c2n[nH]c(=O)n2-c2ccc3c(ccn3C)c2)c(O)cc1O [Ganetespib]
0.521
6. CC1(COc2ccc3c(c2)ncn3-c2ccc3cccc(N4CCC(N)CC4)c3n2)COC1 [Crenolanib]
1.06

====

Test system: primary AML patient cells (S071)
Experiment: viability relative to DMSO control (fraction); higher = less drug effect (more viable cells)
Settings: 0.4 µM; 48 h
viability: recorded values
Quantity measured: viability

1) CN1CC[C@H](c2c(O)cc(O)c3c(=O)cc(-c4ccccc4Cl)oc23)[C@H](O)C1
0.0926
2) CC(C)c1cc(C(=O)N2Cc3ccc(CN4CCN(C)CC4)cc3C2)c(O)cc1O
0.169
3) CC1(COc2ccc3c(c2)ncn3-c2ccc3cccc(N4CCC(N)CC4)c3n2)COC1
0.778
4) O=C(Nc1nc2ccccc2n1CCN1CCOCC1)c1cccc([N+](=O)[O-])c1
0.815

====

Tested on: primary AML patient cells (S055)
Test: viability relative to DMSO control (fraction); higher = less drug effect (more viable cells)
Conditions: 0.6 µM; 48 h
viability: recorded values
Quantity measured: viability

1) N#Cc1ccnc(N2C(=O)CC[C@H]2C(=O)N(c2cncc(F)c2)[C@H](C(=O)NC2CC(F)(F)C2)c2ccccc2Cl)c1 [AG-120]
1.01
2) O=C(Nc1cccc(C(F)(F)F)c1)Nc1cc(S(=O)(=O)NC2CC2)ccc1-c1ccsc1 [AGI-6780]
0.874
3) C[C@@H](Oc1cc(-c2cnn(C3CCNCC3)c2)cnc1N)c1c(Cl)ccc(F)c1Cl [Crizotinib]
0.999
4) CCc1nc(C(N)=O)c(Nc2ccc(N3CCC(N4CCN(C)CC4)CC3)c(OC)c2)nc1NC1CCOCC1 [Gilteritinib]
0.573
5) CS(=O)(=O)c1ccc(C(=O)Nc2ccc(Cl)c(-c3ccccn3)c2)c(Cl)c1 [Vismodegib]
0.931
6) N#CC[C@H](C1CCCC1)n1cc(-c2ncnc3[nH]ccc23)cn1 [Ruxolitinib]
1

====

Test system: primary CLL patient cells (S031)
Assay: viability relative to DMSO control (fraction); higher = less drug effect (more viable cells)
Conditions: 2 µM; 48 h
Quantity measured: viability

1) Nc1nc(F)nc2c1ncn2[C@@H]1O[C@H](CO)[C@@H](O)[C@@H]1O
0.276
2) CC1(COc2ccc3c(c2)ncn3-c2ccc3cccc(N4CCC(N)CC4)c3n2)COC1
0.305
3) O=C(Nc1nc2ccccc2n1CCN1CCOCC1)c1cccc([N+](=O)[O-])c1
0.861
4) CC(C)c1cc(C(=O)N2Cc3ccc(CN4CCN(C)CC4)cc3C2)c(O)cc1O
0.246

====

viability: recorded values
System: primary AML patient cells (S025)
Assay: viability relative to DMSO control (fraction); higher = less drug effect (more viable cells)
Details: 0.6 µM; 48 h
Quantity measured: viability

1) CCN1CCN(Cc2ccc(Nc3ncc(F)c(-c4cc(F)c5nc(C)n(C(C)C)c5c4)n3)nc2)CC1
1.1
2) N#Cc1ccnc(N2C(=O)CC[C@H]2C(=O)N(c2cncc(F)c2)[C@H](C(=O)NC2CC(F)(F)C2)c2ccccc2Cl)c1 [AG-120]
0.85
3) Nc1nc(=S)c2[nH]cnc2[nH]1 [Thioguanin]
0.615
4) Nc1nc(Cl)nc2c1ncn2[C@@H]1O[C@H](CO)[C@@H](O)[C@@H]1F [Clofarabine]
0.478
5) Nc1ncn([C@H]2C[C@H](O)[C@@H](CO)O2)c(=O)n1 [Decitabine (Dacogen)]
0.912
6) CNC(=O)c1cc(Oc2ccc(NC(=O)Nc3ccc(Cl)c(C(F)(F)F)c3)cc2)ccn1 [Sorafenib]
1.06

====

Test system: primary ALL patient cells (S088)
Test: viability relative to DMSO control (fraction); higher = less drug effect (more viable cells)
Conditions: 0.008 µM; 48 h
Quantity measured: viability

1. Cc1nc(Nc2ncc(C(=O)Nc3c(C)cccc3Cl)s2)cc(N2CCN(CCO)CC2)n1
0.709
2. C/C=C1\NC(=O)[C@H]2CSSCC/C=C/[C@H](CC(=O)N[C@H](C(C)C)C(=O)N2)OC(=O)[C@H](C(C)C)NC1=O
0.123
3. Nc1ccc2ncnc(NCCc3ccc(Oc4ccccc4)cc3)c2c1
0.151
4. Nc1cccc2c1CN(C1CCC(=O)NC1=O)C2=O (centres undefined) [Lenalidomide]
1.07

====

viability: recorded values
Test system: primary B-PLL patient cells (S016)
Test: viability relative to DMSO control (fraction); higher = less drug effect (more viable cells)
Details: 0.2 µM; 48 h
Quantity measured: viability

1. Nc1ccc2ncnc(NCCc3ccc(Oc4ccccc4)cc3)c2c1 [EVP4593]
0.8
2. CCc1cnn2c(NCc3ccc[n+]([O-])c3)cc(N3CCCC[C@H]3CCO)nc12 [Dinaciclib]
0.0324
3. CC(C)C[C@H](NC(=O)CNC(=O)c1cc(Cl)ccc1Cl)B(O)O [Ixazomib]
0.987
4. COc1cccc2c1C(=O)c1c(O)c3c(c(O)c1C2=O)C[C@@](O)(C(=O)CO)C[C@@H]3O[C@H]1C[C@H](N)[C@H](O)[C@H](C)O1 [Doxorubicin]
0.0427

====

System: primary ALL patient cells (S048)
Assay: viability relative to DMSO control (fraction); higher = less drug effect (more viable cells)
Settings: 0.12 µM; 48 h
Returns: string. Value is yes if measured viability is below 0.9, and no if it is greater than or equal to it.

1) Nc1nc(Cl)nc2c1ncn2[C@@H]1O[C@H](CO)[C@@H](O)[C@@H]1F
yes
2) CNC(=O)c1cc(Oc2ccc(NC(=O)Nc3ccc(Cl)c(C(F)(F)F)c3)cc2)ccn1
no
3) O=C(c1cc(Cc2n[nH]c(=O)c3ccccc23)ccc1F)N1CCN(C(=O)C2CC2)CC1
yes

====

Tested on: primary AML patient cells (S085)
Assay: viability relative to DMSO control (fraction); higher = less drug effect (more viable cells)
Settings: 0.2 µM; 48 h
viability: recorded values
Quantity measured: viability

1. O=C1c2c(O)ccc(O)c2C(=O)c2c(NCCNCCO)ccc(NCCNCCO)c21
0.277
2. CC#CC(=O)N1CCC[C@H]1c1nc(-c2ccc(C(=O)Nc3ccccn3)cc2)c2c(N)nccn12
1.01
3. CC(C)(C)C[C@@H]1N[C@@H](C(=O)N[C@H]2CC[C@H](O)CC2)[C@H](c2cccc(Cl)c2F)[C@]12C(=O)Nc1cc(Cl)ccc12
0.849
4. COc1cccc2c1C(=O)c1c(O)c3c(c(O)c1C2=O)C[C@@](O)(C(C)=O)C[C@@H]3O[C@H]1C[C@H](N)[C@H](O)[C@H](C)O1
0.164

These entries and their values trace back to the supplement of paper PMC10733146.
